Biological target: glucokinase (GK), residues 12-465 of the human enzyme (Homo sapiens, UniProt P35557)
Construct: I.D. No. 1 corresponds to residues 12-465 of glucokinase; made in house; host or cells: E. coli DH10b-Tlr
Sequence (P35557 with tags, fused parts or gaps isoform P35557-2): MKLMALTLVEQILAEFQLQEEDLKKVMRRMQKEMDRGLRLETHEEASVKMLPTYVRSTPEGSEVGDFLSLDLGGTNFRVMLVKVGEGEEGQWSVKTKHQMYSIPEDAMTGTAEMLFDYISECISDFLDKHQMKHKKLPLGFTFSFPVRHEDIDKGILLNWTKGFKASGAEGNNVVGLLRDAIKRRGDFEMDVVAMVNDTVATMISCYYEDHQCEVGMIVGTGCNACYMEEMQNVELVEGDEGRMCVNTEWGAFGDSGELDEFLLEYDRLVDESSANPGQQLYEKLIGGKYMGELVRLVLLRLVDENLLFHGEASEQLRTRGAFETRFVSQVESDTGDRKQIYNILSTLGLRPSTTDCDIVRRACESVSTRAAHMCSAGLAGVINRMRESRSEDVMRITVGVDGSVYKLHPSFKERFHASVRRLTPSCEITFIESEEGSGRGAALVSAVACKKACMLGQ
Experiment: Enzymatic glucokinase activity assay (KinaseGlo luminescence, ATP consumption)
Format: biochemical
Settings: calculated maximal gain in GK enzyme activity at a saturating concentration of the compound; 5 μM ATP, 5 mM Glucose; read-out: % ACTmax
Excerpt: The activity of compounds as glucokinase activators may be assayed in vitro, in vivo or in a cell line. Provided below is an enzymatic glucokinase activity assay. Purified glucokinase may be obtained as follows. […] Recombinant protein may be isolated from cellular extracts by passage over Sepharose Q Fast Flow resin (Pharmacia). […] The purity of GK may be determined on denaturing SDS-PAGE gel. […]
reported_property: Emax

>>> recorded_result("O=C(Nc1nccs1)[C@H](CC1CCCCC1)N1CCN(C(=S)Nc2cccc(C(F)(F)F)c2)CC1=O")
"97.1 to 107%"
>>> recorded_result("COC(=O)c1cc(C)c(S(=O)(=O)N2CCN([C@@H](CC3CCCCC3)C(=O)Nc3nccs3)C(=O)C2)s1")
"≤ 74%"
>>> recorded_result("O=C(Nc1nccs1)[C@H](CC1CCCCC1)N1CCN(S(=O)(=O)Cc2cccc(Cl)c2)CC1=O")
"108 to 119%"
>>> recorded_result("O=C(Nc1nccs1)[C@H](CC1CCCCC1)N1CCN(S(=O)(=O)Cc2cc(Cl)cc(Cl)c2)CC1=O")
"74.1 to 97%"
>>> recorded_result("O=C(Nc1nccs1)[C@H](CC1CCCCC1)N1CCN(S(=O)(=O)N2CCCC2)CC1=O")
"108 to 119%"
>>> recorded_result("CC(C)Oc1ccc(S(=O)(=O)N2CCN([C@@H](CC3CCCCC3)C(=O)Nc3nccs3)C(=O)C2)cc1")
"≤ 74%"
>>> recorded_result("O=C(Nc1nccs1)[C@H](CC1CCCCC1)N1CCN(C(=S)NCc2cccc(F)c2)CC1=O")
"97.1 to 107%"
>>> recorded_result("O=C(Nc1nccs1)[C@H](CC1CCCCC1)N1CCN(S(=O)(=O)c2ccc(F)c(Cl)c2)CC1=O")
"74.1 to 97%"
>>> recorded_result("O=C(Nc1nccs1)[C@H](CC1CCCCC1)N1CCN(C(=O)Nc2ccc3c(c2)OCCO3)CC1=O")
"74.1 to 97%"
>>> recorded_result("O=C(Nc1nccs1)[C@H](CC1CCCCC1)N1CCN(S(=O)(=O)c2c(Cl)nc3sccn23)CC1=O")
"108 to 119%"
>>> recorded_result("O=C(Nc1nccs1)[C@H](CC1CCCCC1)N1CCN(C(=O)Nc2cccc(C(F)(F)F)c2)CC1=O")
"74.1 to 97%"
>>> recorded_result("O=C(Nc1nccs1)[C@H](CC1CCCCC1)N1CCN(S(=O)(=O)c2ccccc2F)CC1=O")
"≥ 119%"
>>> recorded_result("O=C(Nc1nccs1)[C@H](CC1CCCCC1)N1CCN(C(=S)NC2CCCC2)CC1=O")
"97.1 to 107%"
>>> recorded_result("NS(=O)(=O)c1ccc(NC(=S)N2CCN([C@@H](CC3CCCCC3)C(=O)Nc3nccs3)C(=O)C2)cc1")
"108 to 119%"
>>> recorded_result("O=C(Nc1nccs1)[C@H](CC1CCCCC1)N1CCN(C(=O)Nc2ccc(Cl)cc2)CC1=O")
"≤ 74%"
>>> recorded_result("O=C(Nc1nccs1)[C@H](CC1CCCCC1)N1CCN(S(=O)(=O)C2CCCCC2)CC1=O")
"≥ 119%"
>>> recorded_result("CS(=O)(=O)N1CCN([C@@H](CC2CCCCC2)C(=O)Nc2nccs2)C(=O)C1")
"74.1 to 97%"
>>> recorded_result("O=C(Nc1nccs1)[C@H](CC1CCCCC1)N1CCN(S(=O)(=O)c2ccc(Cl)c(Cl)c2)CC1=O")
"≤ 74%"
>>> recorded_result("O=C(Nc1nccs1)[C@H](CC1CCCCC1)N1CCN(S(=O)(=O)c2cc3ccccc3s2)CC1=O")
"74.1 to 97%"
>>> recorded_result("O=C(Nc1ncc(F)s1)[C@H](CC1CCOCC1)N1CCN(S(=O)(=O)C2CC2)CC1=O")
"108 to 119%"
>>> recorded_result("O=C(Nc1nccs1)[C@H](CC1CCCCC1)N1CCN(C(=S)NCCCN2CCOCC2)CC1=O")
"97.1 to 107%"
>>> recorded_result("Cc1ccc(S(=O)(=O)N2CCN([C@@H](CC3CCCCC3)C(=O)Nc3nccs3)C(=O)C2)cc1Cl")
"108 to 119%"
